Measurement target: RORc ligand binding domain (Homo sapiens)
Sequence (P51449 269-508 limits assumed): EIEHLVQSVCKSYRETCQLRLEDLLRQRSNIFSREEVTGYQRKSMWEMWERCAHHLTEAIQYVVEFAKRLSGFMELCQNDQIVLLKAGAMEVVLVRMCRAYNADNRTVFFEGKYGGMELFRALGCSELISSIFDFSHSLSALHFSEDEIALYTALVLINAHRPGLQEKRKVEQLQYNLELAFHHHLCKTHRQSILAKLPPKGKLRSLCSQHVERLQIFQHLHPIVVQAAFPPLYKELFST
Measurement description: In Vitro RORc Ligand Binding Assay
Test settings: RORc IC50, radioligand 25-[3H]hydroxycholesterol 6 nM; 0.6 ug/mL RORc receptor; 3 h at 25° C.
pIC50: −log10 of the molar value.
Think of 8 as a floor: if pIC50 stands on it or above, it is Criterion met; beneath it, Criterion not met.

// known answers, use as guide
CC1(C)[C@H]2CC[C@]1(c1cncc(C(=O)NCc3n[nH]c(=O)[nH]3)n1)c1nnc(-c3c(F)cccc3F)cc12 ... Criterion not met
C[C@@H](O)Cc1n[nH]c(-c2cccc([C@@]34CC[C@@H](c5cc(-c6c(F)cccc6F)nnc53)C4(C)C)n2)n1 ... Criterion not met
Cc1nc(=O)[nH]n1-c1nccc([C@@]23CC[C@@H](c4cc(-c5c(F)cccc5F)nnc42)C3(C)C)n1 ... Criterion not met
CC1(C)[C@H]2CC[C@]1(c1ccnc(-c3cccnc3)n1)c1nnc(-c3c(F)cccc3F)cc12 ... Criterion met
CC1(C)[C@H]2CC[C@]1(c1nccc(-n3ccc(CO)n3)n1)c1nnc(-c3c(F)cccc3F)cc12 ... Criterion not met

IN: Test whether the compound CC1(C)[C@H]2CC[C@]1(c1cncc(C(=O)NCCC#N)n1)c1nnc(-c3c(F)cccc3F)cc12 records pIC50 of 8 or higher.
OUT: Criterion not met

IN: Test whether the compound CC1(C)[C@H]2CC[C@]1(c1cncc(-c3nc(C#N)co3)n1)c1nnc(-c3c(F)cccc3F)cc12 records pIC50 of 8 or higher.
OUT: Criterion met
